molecular target: UniProt P26663; test: Inhibition of NS5B RNA dependent RNA polymerase activity; format: biochemical; settings: Table 4; class ranges
pIC50: −log10 of the molar value.
Below, each of the compounds is paired with its reported pIC50 value.

Below: 5 compounds and their reported pIC50.
compound="N#CC1(NC(=O)c2ccc3c(C4CCCCC4)c(-c4ccoc4)n(CC(=O)N4CCC(N5CCCC5)CC4)c3c2)CCC1 [Example 4090]" recorded_value="> 6.70"
compound="CN(C)C(=O)Cn1c(-c2ccoc2)c(C2CCCCC2)c2ccc(C(=O)NCCc3ccccc3)cc21 [Example 4055]" recorded_value="6.00 to 6.70"
compound="COC(=O)C1(NC(=O)c2ccc3c(C4CCCCC4)c(-c4ccoc4)n(CC(=O)N4CCOCC4)c3c2)CCCCC1 [Example 4076]" recorded_value="6.00 to 6.70"
compound="O=C(NC1(c2csc(Cc3ccccc3)n2)CCC1)c1ccc2c(C3CCCCC3)c(-c3ccoc3)n(CC(=O)N3CCC(N4CCCC4)CC3)c2c1 [Example 4104]" recorded_value="5.00 to 6.00"
compound="CN1CCN(C(=O)Cn2c(-c3ccoc3)c(C3CCCCC3)c3ccc(C(=O)NCC4CC4)cc32)CC1 [Example 4034]" recorded_value="6.00 to 6.70"

Response field pIC50 (UniProt P26663) for item COc1cc(CNC(=O)c2ccc3c(C4CCCCC4)c(-c4ccoc4)n(CC(=O)N4CCOCC4)c3c2)ccc1O [Example 4064] : 6.00 to 6.70

Bench note, UniProt P26663: entry CN(C)CCNC(=O)c1ccc2c(C3CCCCC3)c(-c3ccoc3)n(CC(=O)N3CCN(C)CC3)c2c1 [Example 4025] , its pIC50 = 6.00 to 6.70

Note to self: pIC50 of O=C(NCCc1ccccc1)c1ccc2c(C3CCCCC3)c(-c3ccoc3)n(CC(=O)N3CCOCC3)c2c1 [Example 4048] with UniProt P26663 was 5.00 to 6.00

I looked up COc1ccc(CNC(=O)c2ccc3c(C4CCCCC4)c(-c4ccoc4)n(CC(=O)N4CCC(N5CCCC5)CC4)c3c2)cc1OC [Example 4004] and its pIC50 for UniProt P26663 was > 6.70

pIC50 for UniProt P26663 with input CN(C)C(=O)Cn1c(-c2ccoc2)c(C2CCCCC2)c2ccc(C(=O)NCc3ccc4c(c3)OCO4)cc21 [Example 4052] equals 6.00 to 6.70

Item C#CC1(NC(=O)c2ccc3c(C4CCCCC4)c(-c4ccoc4)n(CC(=O)N4CCOCC4)c3c2)CCCCC1 [Example 4071] ; assay system UniProt P26663; pIC50 reported as 6.00 to 6.70

// compound CC(C)(NC(=O)c1ccc2c(C3CCCCC3)c(-c3ccoc3)n(CC(=O)N3CCC(N4CCCC4)CC3)c2c1)C(N)=O [Example 4081] , assay UniProt P26663, pIC50 value: > 6.70

###

Known IC50 of a selection of compounds
target: hepatitis C virus RNA dependant polymerase (NS5B) (Hepatitis C virus genotype 1b, UniProt P26663); test: Inhibition of NS5B RNA dependent RNA polymerase activity; format: biochemical; details: Table 1; HCV NS5B polymerase
Sequence (P26663 2420-3010): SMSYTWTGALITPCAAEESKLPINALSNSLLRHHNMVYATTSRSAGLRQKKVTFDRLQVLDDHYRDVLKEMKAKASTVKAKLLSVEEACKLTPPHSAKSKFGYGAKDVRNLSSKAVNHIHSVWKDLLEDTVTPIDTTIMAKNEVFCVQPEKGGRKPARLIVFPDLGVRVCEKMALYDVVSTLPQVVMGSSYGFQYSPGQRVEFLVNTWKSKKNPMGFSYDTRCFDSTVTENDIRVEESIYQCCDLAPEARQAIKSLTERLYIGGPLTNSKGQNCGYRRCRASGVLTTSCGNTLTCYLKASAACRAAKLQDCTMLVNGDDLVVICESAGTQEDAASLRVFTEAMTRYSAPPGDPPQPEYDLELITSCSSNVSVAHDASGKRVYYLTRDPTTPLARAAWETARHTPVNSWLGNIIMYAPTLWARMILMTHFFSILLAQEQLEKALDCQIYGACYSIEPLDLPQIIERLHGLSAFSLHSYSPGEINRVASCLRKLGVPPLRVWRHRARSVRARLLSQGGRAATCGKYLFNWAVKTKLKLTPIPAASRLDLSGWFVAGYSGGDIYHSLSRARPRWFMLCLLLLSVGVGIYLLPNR

compound=Nc1cccc(-c2c(C3CCCCC3)c3ccc(C(=O)O)cc3n2CC(=O)N2CCC(N3CCCC3)CC2)n1 observable=IC50 recorded_value="< 200 nM"
compound=O=C(O)c1ccc2c(C3CCCCC3)c(-c3ccc(Br)cn3)n(CC(=O)N3CCC(C(=O)O)CC3)c2c1 observable=IC50 recorded_value="200 to 1000 nM"
compound=O=C(Cn1c(-c2ccoc2)c(C2CCCCC2)c2ccc(C(=O)O)cc21)N[C@@H](Cc1ccc(O)cc1)C(=O)O observable=IC50 recorded_value="< 200 nM"
compound=O=C(O)c1ccc2c(C3CCCCC3)c(-c3csc4ccccc34)n(CC(=O)N3CCC(N4CCCC4)CC3)c2c1 observable=IC50 recorded_value="200 to 1000 nM"
compound=O=C(O)c1ccc2c(C3CCCCC3)c(-c3ccoc3)n(CC(=O)N3CCC(N4CCCCC4)CC3)c2c1 observable=IC50 recorded_value="< 200 nM"

Reported IC50 of O=C(O)c1ccc2c(C3CCCCC3)c(-c3ccccc3)n(CC(=O)N3CCC(N4CCCC4)CC3)c2c1 : < 200 nM

Reported IC50 ( CCN(CC)CCN(C)C(=O)Cn1c(-c2ccoc2)c(C2CCCCC2)c2ccc(C(=O)O)cc21 ) = < 200 nM

Note to self: IC50 recorded for CCN(CC)CCN(CC)C(=O)Cn1c(-c2ccoc2)c(C2CCCCC2)c2ccc(C(=O)O)cc21 was < 200 nM

IC50 reading for COc1ccc(CNC(=O)Cn2c(-c3ccoc3)c(C3CCCCC3)c3ccc(C(=O)O)cc32)cc1 : 1000 to 10000 nM

For reference, reported IC50 for CC(C)NC(=O)Cn1c(-c2ccoc2)c(C2CCCCC2)c2ccc(C(=O)O)cc21 stands at 200 to 1000 nM

Quick note, IC50 for CCN(Cc1ccncc1)C(=O)Cn1c(-c2ccoc2)c(C2CCCCC2)c2ccc(C(=O)O)cc21 landed at 200 to 1000 nM

Per the record, CN(Cc1cccnc1)C(=O)Cn1c(-c2ccoc2)c(C2CCCCC2)c2ccc(C(=O)O)cc21 has IC50 of 200 to 1000 nM

Per the records, this compound ( CN(C)C1CCN(C(=O)Cn2c(-c3ccoc3)c(C3CCCCC3)c3ccc(C(=O)O)cc32)C1 (stereo not shown) ) has IC50 equal to < 200 nM

Just so you know, measured IC50 for CCC(NC(=O)Cn1c(-c2ccoc2)c(C2CCCCC2)c2ccc(C(=O)O)cc21)C(=O)O (stereo not shown) came out at < 200 nM

Entry O=C(Cn1c(-c2ccoc2)c(C2CCCCC2)c2ccc(C(=O)O)cc21)NCc1ccccc1 , IC50 reported as 200 to 1000 nM

Entry under test: CC(C)CN(C)C(=O)Cn1c(-c2ccoc2)c(C2CCCCC2)c2ccc(C(=O)O)cc21 . Its IC50 was 200 to 1000 nM

Form: compound = CN(C)C(=O)CN(C)C(=O)Cn1c(-c2ccoc2)c(C2CCCCC2)c2ccc(C(=O)O)cc21 ; IC50 = < 200 nM

For CN(CCc1ccccn1)C(=O)Cn1c(-c2ccoc2)c(C2CCCCC2)c2ccc(C(=O)O)cc21 the compound record lists IC50 as < 200 nM

Briefly, IC50 measured for O=C(O)c1ccc2c(C3CCCCC3)c(-c3ccccn3)n(CC(=O)N3CCCCC3)c2c1 : 200 to 1000 nM

###

Molecular target: hepatitis C virus RNA dependant polymerase (NS5B) (Hepatitis C virus genotype 1b)
Assay: Inhibition of NS5B RNA dependent RNA polymerase activity
Assay type: biochemical
Details: Table 1; HCV NS5B polymerase
Experimental: A suitable assay is described in the examples. Inhibition of NS5B RNA Dependent RNA Polymerase Activity The compounds of the invention were tested for inhibitory activity against the hepatitis C virus RNA dependant polymerase (NS5B), according to protocol described in WO 03/010141
pIC50: −log10 of the molar value.
OBSERVABLE: pIC50

structure_smiles=O=C(Cn1c(-c2ccc(Br)cn2)c(C2CCCCC2)c2ccc(C(=O)O)cc21)NNC(=O)NC[C@H]1CC[C@H](C(=O)O)CC1 recorded_value="6.00 to 6.70"
structure_smiles=CN(C)CCCN(C)C(=O)Cn1c(-c2ccoc2)c(C2CCCCC2)c2ccc(C(=O)O)cc21 recorded_value="> 6.70"
structure_smiles=O=C(Cn1c(-c2ccoc2)c(C2CCCCC2)c2ccc(C(=O)O)cc21)NCC1CCCCC1 recorded_value="6.00 to 6.70"
structure_smiles=O=C(Cn1c(-c2ccoc2)c(C2CCCCC2)c2ccc(C(=O)O)cc21)NNC(=O)NC[C@H]1CC[C@H](C(=O)O)CC1 recorded_value="> 6.70"
structure_smiles=NC(=O)[C@@H]1CCCN1C(=O)Cn1c(-c2ccoc2)c(C2CCCCC2)c2ccc(C(=O)O)cc21 recorded_value="> 6.70"
structure_smiles=O=C(O)CNNC(=O)Cn1c(-c2ccoc2)c(C2CCCCC2)c2ccc(C(=O)O)cc21 recorded_value="> 6.70"
structure_smiles=CN(CC(=O)O)C(=O)Cn1c(-c2ccc(Br)cn2)c(C2CCCCC2)c2ccc(C(=O)O)cc21 recorded_value="6.00 to 6.70"

Entry CC(C)NC(=O)Cn1c(-c2cccs2)c(C2CCCCC2)c2ccc(C(=O)O)cc21 , hepatitis C virus RNA dependant polymerase (NS5B) (Hepatitis C virus genotype 1b) data, pIC50 value: 6.00 to 6.70

###

target: hepatitis C virus RNA dependant polymerase (NS5B) (Hepatitis C virus genotype 1b, UniProt P26663); assay: Inhibition of NS5B RNA dependent RNA polymerase activity; type: biochemical; settings: Table 4; class ranges
pIC50: −log10 of the molar value.
OBSERVABLE: pIC50

molecule=CNC(=O)C1(NC(=O)c2ccc3c(C4CCCCC4)c(-c4ccoc4)n(CC(=O)N4CCOCC4)c3c2)CCCC1 observable=pIC50 recorded_value="> 6.70"
molecule=CNC(=O)C1(NC(=O)c2ccc3c(C4CCCCC4)c(-c4ccoc4)n(CC(=O)N4CCOCC4)c3c2)CCC1 observable=pIC50 recorded_value="6.00 to 6.70"
molecule=NC(=O)C1(NC(=O)c2ccc3c(C4CCCCC4)c(-c4ccoc4)n(CC(=O)N4CCOCC4)c3c2)COCOC1 observable=pIC50 recorded_value="> 6.70"
molecule="CN1CCN(C(=O)Cn2c(-c3ccoc3)c(C3CCCCC3)c3ccc(C(=O)NCCC4CCCN4C)cc32)CC1 (stereo not drawn)" observable=pIC50 recorded_value="6.00 to 6.70"
molecule=CC(C)(NC(=O)c1ccc2c(C3CCCCC3)c(-c3ccoc3)n(CC(=O)N3CCC(N4CCCC4)CC3)c2c1)c1ccccc1 observable=pIC50 recorded_value="6.00 to 6.70"

Here is the next item to consider.
Lab note: CNC(=O)C(C)(C)NC(=O)c1ccc2c(C3CCCCC3)c(-c3ccoc3)n(CC(=O)N3CCC(N4CCCC4)CC3)c2c1 gave pIC50 of > 6.70
